Data provenance is patent US20220112291A1.

tested.on: human CD1a expressed on cells (human, UniProt P06126 17-327)
Sequence (P06126 17-327): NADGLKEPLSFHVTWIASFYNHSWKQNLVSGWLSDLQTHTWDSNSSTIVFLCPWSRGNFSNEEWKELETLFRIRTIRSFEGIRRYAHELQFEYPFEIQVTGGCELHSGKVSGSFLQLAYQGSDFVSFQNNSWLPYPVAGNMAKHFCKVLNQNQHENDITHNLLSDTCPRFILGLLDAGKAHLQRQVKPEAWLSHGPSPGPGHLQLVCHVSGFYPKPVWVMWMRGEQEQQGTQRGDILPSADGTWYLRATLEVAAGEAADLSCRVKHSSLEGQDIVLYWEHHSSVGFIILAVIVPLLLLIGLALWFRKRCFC
run.description: cell-based or functional assay

binder | Inhibition of CD69 expression, IC50
Ab492 (antibody, human IgG1, kappa, V domains shown, Optimized variant of Ab138; human IgG1 effector null / kappa; HC with or without terminal lysine) VH: EVQLVESGGGLVQPGGSLRLSCAASGFTFTDHYMTWVRQAPGKGLEWVAFIRNKANGYTTESNPAVKGRFTISRDNAKNSLYLQMNSLRAEDTAVYYCARETTGIPTGWFAYWGQGTLVTVSS VL: DIQMTQSPSSLSASVGDRVTITCLASEDIYFDLAWYQQKPGKAPKLLIYGGDRLKEGVPSRFSGSGSGTDYTLTISSLQPEDFATYYCQQSESYPYTFGQGTKLEIKR | 1180 pM
Ab673 (antibody, human IgG1, kappa, V domains shown, Optimized variant of Ab138; human IgG1 effector null / kappa; HC with or without terminal lysine) VH: EVQLVESGGGLVQPGGSLRLSCAASGFTFTDHYMHWVRQAPGKGLEWVAHTRDKAGGYTTESNPAVKGRFTISRDNAKNSLYLQMNSLRAEDTAVYYCARETTRIPTGWFAYWGQGTLVTVSS VL: DIQMTQSPSSLSASVGDRVTITCLASEDIYFDLAWYQQKPGKAPKLLIYGGDRLKEGVPSRFSGSGSGTDYTLTISSLQPEDFATYYCQQSYSYPYTFGQGTKLEIKR | 300 pM
Ab656 (antibody, human IgG1, kappa, V domains shown, Optimized variant of Ab138; human IgG1 effector null / kappa; HC with or without terminal lysine) VH: EVQLVESGGGLVQPGGSLRLSCAASGFDFTDHYMHWVRQAPGKGLEWVAHTRDKAGGYTTESNPAVKGRFTISRDNAKNSLYLQMNSLRAEDTAVYYCARETTRIPTGWFAYWGQGTLVTVSS VL: DIQMTQSPSSLSASVGDRVTITCLASEDIYFDLAWYQQKPGKAPKLLIYGGDRLQEGVPSRFSGSGSGTDYTLTISSLQPEDFATYYCQQSYSYPYTFGQGTKLEIKR | 480 pM
